Assay: NCI Yeast Anticancer Drug Screen. Data for the cln2 rad14 strain (AID 165);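 further: 0% = growth equal to vehicle treated cultures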
Conditions: S. cerevisiae cln2 rad14 strain, at 50.0 µM, active compounds read high
Experimental: Growth inhibition of yeast strains with defined genetic alterations is measured as a screen for potential anti-cancer activity. Selected strains with alterations in DNA damage repair or cell cycle control were exposed to compounds and growth inhibition was measured relative to vehicle treated controls. The strain used in this assay is cln2 rad14
About 79,000 compounds went through this panel and 15% of them were active in at least one assay; those are over-represented in the sample as a whole. Calls of active or inactive are those of the source. No stated cut-off is given here; in the data, active means growth inhibition above about 70%; inactive means the rest.
endpoint.name: growth inhibition

smiles_data=NCCCN(CCO)CCO endpoint_name="growth inhibition" meas_value="-31.9% (inactive)"
smiles_data=C[N+](C)(C)C1CCC1 endpoint_name="growth inhibition" meas_value="8.35% (inactive)"
smiles_data=CCN(CC)CCNC(=O)c1ccccc1NC(=O)C(=O)Nc1ccccc1C(=O)NCCN(CC)CC endpoint_name="growth inhibition" meas_value="-5.15% (inactive)"
smiles_data=Cc1ccc(C(=O)Nc2c(C)cccc2C)cc1 endpoint_name="growth inhibition" meas_value="3.65% (inactive)"
